Cited source for all entries: ChEMBL document CHEMBL1126988

# Species: Mus musculus
# Procedure details: Compounds were evaluated for phototoxicity no-effect dose in mouse
# Format: functional
Quantity measured: Dose

Worked set:
Please report the recorded Dose for Nc1c(F)c(N2CCC(N)C2)c(F)c2c1c(=O)c(C(=O)O)cn2C1CC1 (stereo not given) .
55 mg/kg

Now consider CNCC1CCN(c2c(F)c(N)c3c(=O)c(C(=O)O)cn(C4CC4)c3c2F)C1 (stereo not given) .
>100 mg/kg

Now consider CCN[C@H](C)[C@H]1CCN(c2c(F)cc3c(=O)c(C(=O)O)cn(C4CC4)c3c2OC)C1 (racemic) .
>100 mg/kg

Need Dose for each of these molecules.
1. CN[C@H](C)[C@H]1CCN(c2c(F)c(N)c3c(=O)c(C(=O)O)cn(C4CC4)c3c2F)C1 (mixture of isomers)
2. C[C@@H](N)[C@H]1CCN(c2nc3c(cc2F)c(=O)c(C(=O)O)cn3-c2ccc(F)cc2F)C1 (racemic)

["<30 mg/kg", ">100 mg/kg"]

---

# Test system: Streptococcus pyogenes
# Procedure details: Minimum inhibitory concentration was evaluated in vitro against Streptococcus pyogenes C 203
# Assay type: functional
# Condition summary: Streptococcus pyogenes; read-out: MIC
Quantity measured: MIC (mg/L)
Answers are plain numbers, in mg/L.

Please report the recorded MIC for CCN[C@@H](C)[C@H]1CCN(c2nc3c(cc2F)c(=O)c(C(=O)O)cn3C2CC2)C1 .
0.4

Need MIC for each of these compounds.
1. CNCC1CCN(c2c(F)c(N)c3c(=O)c(C(=O)O)cn(C4CC4)c3c2F)C1 (stereo not drawn)
2. NCC1CCN(c2nc3c(cc2F)c(=O)c(C(=O)O)cn3C2CC2)C1 (stereo not drawn)

1. 0.003
2. 0.025

---

I'd be grateful if you could share measured MIC for these entries.
# Test system: Streptococcus pyogenes
# Procedure details: Minimum inhibitory concentration was evaluated in vitro against Streptococcus pyogenes C 203
# Format: functional
# Condition summary: Streptococcus pyogenes; read-out: MIC

Need MIC for each of these compounds.
1. COc1c(N2CCC(C)(CN)C2)c(F)cc2c(=O)c(C(=O)O)cn(C3CC3)c12 (stereo not drawn)
2. CCN[C@H](C)[C@@H]1CCN(c2c(F)cc3c(=O)c(C(=O)O)cn(C4CC4)c3c2C(F)(F)F)C1
3. NC1CCN(c2nc3c(cc2F)c(=O)c(C(=O)O)cn3-c2ccc(F)cc2F)C1 (stereo not drawn)

["0.013 µg/mL", "0.1 µg/mL", "0.05 µg/mL"]

---

I'd be grateful if you could share measured pIC50 for these entries.
# Measured target: DNA gyrase (Escherichia coli, UniProt P0AES4+P0AES6)
# Procedure details: Inhibition against DNA gyrase
Answers are plain numbers, as −log10 of the molar value.

Worked set:
Please report the recorded pIC50 for C[C@@H](N)[C@H]1CCN(c2nc3c(cc2F)c(=O)c(C(=O)O)cn3-c2ccc(F)cc2F)C1 (racemic) .
5.94

Now consider NCC1CCN(c2cc3c(cc2F)c(=O)c(C(=O)O)cn3C2CC2)C1 (stereo not drawn) .
5.84

Now, please, on to the next compound.
Please report the recorded pIC50 for CCN[C@H](C)[C@H]1CCN(c2c(F)cc3c(=O)c(C(=O)O)cn(C4CC4)c3c2C(F)(F)F)C1 (racemic) .
5.71
